Entry source: ChEMBL document CHEMBL1142341

- procedure.summary: Half life in human plasma
- Format: ADME, cell-free
Residues, ends and D or L forms follow the SMILES beside them. *: point of attachment. X1 = CCOC(=O)/C=C/[C@H](CC(C)C)N*
measurement.type: half-life

The following molecules have reported results that may help.
- molecule: "CCOC(=O)/C=C/[C@H](CC(C)C)NC(=O)C[C@@H]1NC(=O)[C@H](CO)NC(=O)[C@H](C(C)C)NC(=O)[C@H](Cc2ccccc2)NC1=O (cyclo(D(X1)FVS))"
  half-life: "> 6 h"
- molecule: "CCOC(=O)/C=C/[C@H](CC(C)C)NC(=O)C[C@@H]1NC(=O)[C@H](CC(C)C)NC(=O)[C@H](CC(C)C)NC(=O)[C@H](Cc2ccccc2)NC1=O (cyclo(D(X1)FLL))"
  half-life: "> 6 h"

Next:
Lab note: measured half-life of CCOC(=O)/C=C/[C@H](CC(C)C)NC(=O)CC[C@@H]1NC(=O)[C@H](CC(C)C)NC(=O)[C@H](CC(C)C)NC(=O)[C@H](Cc2ccccc2)NC1=O (cyclo(E(X1)FLL)) was > 6 h
